Molecular target: b-Raf (V600E) (Homo sapiens (Human), UniProt P15056, V600E)
Sequence (P15056 whole entry V600E): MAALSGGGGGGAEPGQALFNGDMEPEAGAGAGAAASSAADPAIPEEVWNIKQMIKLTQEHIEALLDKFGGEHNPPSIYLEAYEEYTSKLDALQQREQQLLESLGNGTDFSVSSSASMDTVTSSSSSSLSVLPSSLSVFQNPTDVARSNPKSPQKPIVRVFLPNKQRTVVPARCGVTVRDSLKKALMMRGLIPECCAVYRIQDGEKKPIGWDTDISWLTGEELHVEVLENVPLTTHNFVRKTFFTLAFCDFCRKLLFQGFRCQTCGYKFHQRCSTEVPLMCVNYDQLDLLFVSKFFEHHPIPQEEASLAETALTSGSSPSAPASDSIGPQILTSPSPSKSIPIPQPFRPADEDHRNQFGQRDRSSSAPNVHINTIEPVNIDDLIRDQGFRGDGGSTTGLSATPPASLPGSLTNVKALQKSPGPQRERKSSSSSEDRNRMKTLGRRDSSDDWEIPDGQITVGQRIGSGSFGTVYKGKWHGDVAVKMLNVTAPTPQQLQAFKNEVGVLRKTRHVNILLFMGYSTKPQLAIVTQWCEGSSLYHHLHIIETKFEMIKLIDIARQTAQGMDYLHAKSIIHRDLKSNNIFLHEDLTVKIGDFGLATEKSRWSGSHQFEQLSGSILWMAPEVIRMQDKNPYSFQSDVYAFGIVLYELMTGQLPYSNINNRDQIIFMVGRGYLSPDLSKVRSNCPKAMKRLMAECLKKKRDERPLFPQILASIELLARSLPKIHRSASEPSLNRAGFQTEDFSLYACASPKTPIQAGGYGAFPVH
Details: read-out: b-Raf IC-50; AlphaScreen, 60 min pre-incubation, 3 hours reaction
pIC50: −log10 of the molar value.
measured quantity: pIC50

Please review the entries below; each comes with its answer.
>  <compound>
Cc1ccc(NC(=O)c2ccc(C(O)CO)c(C(F)(F)F)c2)cc1-c1cc(N2CCOCC2)c(=O)n(C)c1 (stereo not shown)

>  <measured quantity>
pIC50

>  <recorded result>
7.80

$$$$
>  <compound>
Cc1ccc(C(=O)Nc2cccc(C(C)(C)C#N)c2)cc1-c1cc(N2CCOCC2)n(C)c(=O)c1

>  <measured quantity>
pIC50

>  <recorded result>
8.35

$$$$
>  <compound>
CCNc1nc(-c2cc(NC(=O)c3ccnc(C(F)(F)F)c3)ccc2C)cc(N2CCOCC2)n1

>  <measured quantity>
pIC50

>  <recorded result>
9.00

$$$$
>  <compound>
Cc1ccc(C(=O)Nc2cccc(-c3nnco3)c2)cc1-c1cc(N2CCOCC2)c(=O)n(C)c1

>  <measured quantity>
pIC50

>  <recorded result>
7.81

$$$$
>  <compound>
Cc1ccc(NC(=O)c2cnnc(C3CC3)c2)cc1-c1cc(N2CCOCC2)c(=O)n(C)n1

>  <measured quantity>
pIC50

>  <recorded result>
8.54

$$$$

1 = Cc1ccc(NC(=O)c2ccnc(C(C)(F)F)c2)cc1-c1cc(N2CCOCC2)c(=O)n(C)n1
2 = Cc1ccc(NC(=O)c2ccnc(C(C)(C)O)c2)cc1-c1cc(N2CCOCC2)n2nccc2n1
Between 1 and 2 , whose measured pIC50 reads higher? State the label of the item chosen.
1
(1: 8.96, 2: 8.59)

Value source: patent US9694016B2
